Could you please report measured melting point for the items listed next?

Some solved cases for reference:
>>> result("COc1cccc(Cl)c1-c1cc2c(c(Br)cn2C)c2c1C(=O)NC2=O [Example 34]")
"238 to 242 °C"
>>> result("CCOC(=O)c1cc2c3c(c(-c4ccccc4Cl)cc2n1CCCO)C(=O)NC3=O [Example 48 (ii)]")
"249 to 251 °C"
>>> result("COc1ccccc1-c1cc2c(c(Cl)cn2C)c2c1C(=O)NC2=O [Example 30]")
"267 to 271 °C"

List melting point for every entry below, keeping the order given.
1. CCc1cn(C)c2cc(-c3ccccc3Cl)c3c(c12)C(=O)NC3=O [Example 148]
2. CN(C)CCCn1cc(Br)c2c3c(c(-c4ccccc4Cl)cc21)C(=O)NC3=O [Example 140]

1: 230 to 233 °C; 2: 160 to 162 °C

---

measured.metric: melting point

Before answering, review these 9 worked examples.
>>> result("COCCOCCCn1c(CO)c(Br)c2c3c(c(-c4ccccc4Cl)cc21)C(=O)NC3=O [Example 70]")
"149 to 150 °C"
>>> result("Cn1cc(CO)c2c3c(c(-c4ccccc4Cl)cc21)C(=O)NC3=O [Example 168]")
"270 to 274 °C"
>>> result("COc1cccc(Cl)c1-c1cc2c(ccn2C)c2c1C(=O)NC2=O [Example 33]")
"268 to 272 °C"
>>> result("CN(C)Cc1cn(C)c2cc(-c3ccccc3Cl)c3c(c12)C(=O)NC3=O [Example 167]")
"155 to 159 °C"
>>> result("CCOCCOCCn1c(C=O)c(Br)c2c3c(c(-c4ccccc4Cl)cc21)C(=O)NC3=O [Example 56]")
"203 to 205 °C"
>>> result("COCCCn1c(CO)c(Cl)c2c3c(c(-c4ccccc4Cl)cc21)C(=O)NC3=O [Example 67]")
"214 to 215 °C"
>>> result("COCCOCCCn1c(C=O)c(Br)c2c3c(c(-c4ccccc4Cl)cc21)C(=O)NC3=O [Example 69]")
"168 to 169 °C"
>>> result("C[C@@H]1CN(CCCn2cc(Br)c3c4c(c(-c5ccccc5Cl)cc32)C(=O)NC4=O)C[C@H](C)N1 [Example 135]")
"236 to 239 °C"
>>> result("Cn1cc(C#N)c2c3c(c(-c4ccccc4Cl)cc21)C(=O)NC3=O [Example 151]")
"160 to 163 °C"

Next, consider the following molecule.
Look up melting point: Cn1cc(Br)c2c3c(c(I)cc21)C(=O)NC3=O [Example 132]
242 °C (dec.)

---

Exercise: for every item that follows, state its recorded melting point.

Solved entries:
>>> result("CN1CCN(CCCn2cc(Br)c3c4c(c(-c5ccccc5Cl)cc32)C(=O)NC4=O)CC1 [Example 138]")
"150 to 152 °C"
>>> result("C=Cc1cn(C)c2cc(-c3ccccc3Cl)c3c(c12)C(=O)NC3=O [Example 145]")
"200 to 205 °C"
>>> result("COCCCn1c(C(N)=O)cc2c3c(c(-c4ccccc4Cl)cc21)C(=O)NC3=O [Example 51]")
"260 to 261 °C"

Hey, quick one: what's melting point for each of these?
1. COCCCn1c(CO)c(Br)c2c3c(c(-c4ccccc4Cl)cc21)C(=O)NC3=O [Example 60]
2. O=C1NC(=O)c2c1c(-c1ccccc1Cl)cc1c2cc(C(=O)O)n1CCCBr [Example 49]
3. CCOCCOCCn1cc(Br)c2c3c(c(-c4ccccc4Cl)cc21)C(=O)NC3=O [Example 36]
4. O=C1NC(=O)c2c1c(-c1ccccc1Cl)cc1c2cc(CO)n1CCCBr [Example 50]
5. O=C1NC(=O)c2c1c(-c1ccccc1Cl)cc1c2c(Br)cn1CCCN1CCOCC1 [Example 139]
6. O=C1NC(=O)c2c1c(-c1ccccc1Cl)cc1c2c(Br)c(CO)n1CCCO [Example 63]
7. Cn1cc(C(O)CO)c2c3c(c(-c4ccccc4Cl)cc21)C(=O)NC3=O (stereo not shown) [Example 146]

178 to 180 °C
294 to 295 °C
108 to 110 °C
218 to 220 °C
117 to 120 °C
203 to 205 °C
179 to 183 °C

---

measured.metric: melting point

Below is a list of compounds. For each, state its recorded melting point.
1. Cn1ccc2c3c(c(-c4ccccc4[S+](C)[O-])cc21)C(=O)NC3=O (stereo not drawn) [Example 134 (sulfoxide)]
2. COc1ccccc1-c1cc2c(c(Br)cn2C)c2c1C(=O)NC2=O
3. O=C1NC(=O)c2c1c(-c1ccccc1Cl)cc1c2c(Br)cn1CCCN1CCCC1

["311 to 315 °C", "216 to 220 °C", "158 to 161 °C"]

---

Please respond with reported melting point for every item in the list.

Examples with answers:
>>> result("C#Cc1cn(C)c2cc(-c3ccccc3Cl)c3c(c12)C(=O)NC3=O")
"125 to 129 °C"
>>> result("Cn1c(C(=O)O)cc2c3c(c(-c4ccccc4Cl)cc21)C(=O)NC3=O")
"301 to 302 °C"
>>> result("COCCCn1ccc2c3c(c(-c4ccccc4Cl)cc21)C(=O)NC3=O")
"171 to 172 °C"

Could you report melting point for every entry in the following list?
1. O=C1NC(=O)c2c1c(-c1ccccc1Cl)cc1c2ccn1CCN1CCCC1
2. COCCCn1c(C=O)c(Br)c2c3c(c(-c4ccccc4Cl)cc21)C(=O)NC3=O
3. CCCN(CCC)CCCn1cc(Br)c2c3c(c(-c4ccccc4Cl)cc21)C(=O)NC3=O
4. CSc1ccccc1-c1cc2c(ccn2C)c2c1C(=O)NC2=O [Example 134 (sulfide)]
5. COCCCn1c(CO)cc2c3c(c(-c4ccccc4Cl)cc21)C(=O)NC3=O
6. Cn1cc(CN2CCCC2)c2c3c(c(-c4ccccc4Cl)cc21)C(=O)NC3=O
7. CSc1ccccc1-c1cc2c(c(Br)cn2C)c2c1C(=O)NC2=O

208 to 209 °C
206 to 207 °C
173 to 175 °C
272 to 274 °C
187 to 189 °C
160 to 165 °C (dec.)
240 to 243 °C

Count: 7. Required value per item: melting point.
1. COc1ccccc1-c1cc2c(ccn2C)c2c1C(=O)NC2=O
2. Cn1cc(CCO)c2c3c(c(-c4ccccc4Cl)cc21)C(=O)NC3=O
3. COc1ccccc1-c1cc2c(c(C#CCO)cn2C)c2c1C(=O)NC2=O
4. COCCCn1c(C=O)cc2c3c(c(-c4ccccc4Cl)cc21)C(=O)NC3=O
5. CCOC(=O)c1cc2c3c(c(-c4ccccc4Cl)cc2n1CCCOC)C(=O)NC3=O
6. Cn1cc(I)c2c3c(c(-c4ccccc4Cl)cc21)C(=O)NC3=O
7. O=C1NC(=O)c2c1c(-c1ccccc1Cl)cc1c2ccn1CCCO

243 to 245 °C
225 to 229 °C
154 to 157 °C
155 to 156 °C
235 to 237 °C
150 to 154 °C (dec.)
225 to 227 °C

---

measured.metric: melting point

Record excerpt, results attached:
>>> result("O=C1NC(=O)c2c1c(-c1ccccc1Cl)cc1c2c(Cl)c(CO)n1CCCO")
"218 to 219 °C"
>>> result("Cl.NCCCn1cc(Br)c2c3c(c(-c4ccccc4Cl)cc21)C(=O)NC3=O")
"310 to 313 °C"
>>> result("COCCCn1c(C(=O)O)cc2c3c(c(-c4ccccc4Cl)cc21)C(=O)NC3=O")
"272 to 274 °C"

# input for lookup
Please report the recorded melting point for "COCCCn1c(C=O)c(Cl)c2c3c(c(-c4ccccc4Cl)cc21)C(=O)NC3=O" .
198 to 199 °C

The reported measurements were obtained from patent US20050250836A1.
